Recorded values, source patent US20180127503A1.

- Study target: T1, human ROR2 expressed on the cell surface (human, UniProt Q01974 34-943)
- T1 construct: Endogenous ROR2 of human tumour cell lines; also called cell surface ROR2; ROR2 on tumour cell lines
- T1 sequence (Q01974 34-943 limits assumed): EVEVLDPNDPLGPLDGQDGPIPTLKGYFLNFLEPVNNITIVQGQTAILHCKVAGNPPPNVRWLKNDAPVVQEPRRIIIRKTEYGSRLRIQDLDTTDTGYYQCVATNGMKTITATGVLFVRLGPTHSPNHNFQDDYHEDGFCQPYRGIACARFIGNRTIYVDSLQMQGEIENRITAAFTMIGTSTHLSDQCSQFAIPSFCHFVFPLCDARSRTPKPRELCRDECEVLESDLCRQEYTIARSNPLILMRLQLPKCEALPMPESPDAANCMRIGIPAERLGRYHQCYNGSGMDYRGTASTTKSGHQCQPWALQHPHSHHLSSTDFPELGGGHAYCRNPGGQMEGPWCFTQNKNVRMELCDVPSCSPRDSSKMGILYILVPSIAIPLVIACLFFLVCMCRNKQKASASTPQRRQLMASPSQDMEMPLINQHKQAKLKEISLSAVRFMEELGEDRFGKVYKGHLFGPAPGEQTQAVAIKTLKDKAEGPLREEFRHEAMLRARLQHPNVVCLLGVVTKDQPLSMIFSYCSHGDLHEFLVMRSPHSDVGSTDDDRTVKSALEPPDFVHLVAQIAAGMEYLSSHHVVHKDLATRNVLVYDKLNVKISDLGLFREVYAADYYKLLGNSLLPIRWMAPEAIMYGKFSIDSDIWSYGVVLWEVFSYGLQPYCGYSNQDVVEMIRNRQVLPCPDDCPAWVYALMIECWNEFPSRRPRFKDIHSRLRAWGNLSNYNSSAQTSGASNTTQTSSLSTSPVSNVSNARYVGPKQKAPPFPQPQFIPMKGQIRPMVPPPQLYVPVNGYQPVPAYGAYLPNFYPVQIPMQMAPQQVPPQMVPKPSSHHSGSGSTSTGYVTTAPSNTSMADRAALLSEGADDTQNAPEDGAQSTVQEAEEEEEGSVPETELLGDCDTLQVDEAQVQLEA
- Method: flow cytometry, SKMEL-5 cells (melanoma)
- Parameters: unit not given here
- Protocol: Human tumour cell lines were authenticated using short tandem repeat (STR) analysis. They were cultured in RPMI1640 (Cellgro) supplemented with 10% fetal bovine serum (FBS, Life Technologies) at 37° C. in a 5% CO₂ humidified incubator. They were harvested, washed in PBS and reacted with ROR2-IgG at 1 ug/10⁶ tumour cells on ice for an hour. #901-IgG was used as a negative control at the same dose. […] Staining was analyzed on a FACSCalibur (BD Biosciences). […]
Metric: binding intensity

# Binder, Assay value
records = [
    ("ROR2-27 full length human IgG1 antibody (antibody, V domains shown, also called clone #27; clone #027 IgG1) VH: QVQLVESGAEVKKPGESLKISCKASGYSFSNYWIGWVRQMPGKGLEWMGIIYPDDSDTRYSPSFQGQVTISADKSISTAYLQWYSLKVADTAKYYCVRPRGAFDIWGQGTTVTVSS VL: QSVLTQPPSVSGAPGQRVTISCTGSSSNIGAGHAVHWYQQLPGTAPKLLIYDNANRPSGVPDRFSGSQSGTSASLAITGLQTGDEADYYCGTWDDSPSAYVFGTGTKVTVLG", 2),
]
